Measured values drawn from patent US20200190081A1 for this set.

Each entry below carries its reported pKi.
- Subject of test: Human α2δ-1 Subunit of Cav2.2 Calcium Channel (Homo sapiens)
- Sequence (P54289 25-1103): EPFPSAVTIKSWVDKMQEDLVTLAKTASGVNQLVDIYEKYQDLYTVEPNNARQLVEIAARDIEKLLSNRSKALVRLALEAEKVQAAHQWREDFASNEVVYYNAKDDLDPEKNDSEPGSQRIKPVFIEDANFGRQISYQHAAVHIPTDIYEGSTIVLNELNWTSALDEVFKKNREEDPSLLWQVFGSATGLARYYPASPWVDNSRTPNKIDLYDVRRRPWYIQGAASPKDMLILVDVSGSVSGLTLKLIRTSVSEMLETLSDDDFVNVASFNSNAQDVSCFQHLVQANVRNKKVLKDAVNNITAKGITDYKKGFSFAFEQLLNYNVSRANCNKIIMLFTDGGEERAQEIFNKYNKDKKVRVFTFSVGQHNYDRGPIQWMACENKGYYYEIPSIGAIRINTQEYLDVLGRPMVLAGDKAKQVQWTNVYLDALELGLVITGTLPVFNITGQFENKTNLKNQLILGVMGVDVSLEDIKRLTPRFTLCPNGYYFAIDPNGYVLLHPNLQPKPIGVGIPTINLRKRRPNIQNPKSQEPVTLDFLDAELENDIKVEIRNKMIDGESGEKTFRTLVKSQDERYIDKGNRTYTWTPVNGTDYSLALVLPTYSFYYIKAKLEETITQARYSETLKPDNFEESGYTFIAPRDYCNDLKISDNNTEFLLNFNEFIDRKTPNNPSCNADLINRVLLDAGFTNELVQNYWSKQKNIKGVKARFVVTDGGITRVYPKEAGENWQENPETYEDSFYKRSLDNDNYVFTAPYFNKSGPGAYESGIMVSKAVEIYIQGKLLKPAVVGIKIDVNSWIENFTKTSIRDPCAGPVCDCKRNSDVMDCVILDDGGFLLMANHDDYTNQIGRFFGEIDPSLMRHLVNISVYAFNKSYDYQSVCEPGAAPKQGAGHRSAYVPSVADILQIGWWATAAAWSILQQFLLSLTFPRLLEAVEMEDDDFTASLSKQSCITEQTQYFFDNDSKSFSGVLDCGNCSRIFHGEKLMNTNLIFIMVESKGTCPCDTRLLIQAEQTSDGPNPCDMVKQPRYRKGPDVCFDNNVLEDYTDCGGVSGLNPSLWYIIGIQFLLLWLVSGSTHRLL
- Test name: Human α2δ-1 subunit of Cav2.2 calcium channel assay, [3H]-Gabapentin binding
- Condition context: human α2δ-1 enriched membranes, 15 nM [3H]-Gabapentin
pKi: −log10 of the molar value.

{"Compound": "CNCCC(Oc1cccc(-n2nc3c(N(C)CCO)nnc(C)c3c2C)c1)c1ccccc1F (centres unmarked)", "pKi": "5.30 to 6.30"}
{"Compound": "CNCCC(Oc1cccc(-n2nc3c(N(C)C)nnc(C)c3c2C)c1)c1cccc(C#N)c1 (centres unmarked)", "pKi": "5.30 to 6.30"}
{"Compound": "Cc1nnc(N(C)C)c2nn(-c3cccc(OC(CN(C)C)c4cccnc4)c3)c(C)c12 (centres unmarked)", "pKi": "5.30 to 6.30"}
{"Compound": "Cc1nnc(N(C)C)c2nn(-c3cccc(O[C@@H](c4ccccc4)[C@@H]4CNCCO4)c3)c(C)c12 (racemic)", "pKi": "5.30 to 6.30"}
{"Compound": "CNCC(Oc1cccc(-n2nc3c(N(C)C)nnc(C)c3c2C)c1)c1cccc(F)c1 (centres unmarked)", "pKi": "5.30 to 6.30"}
{"Compound": "CNc1nnc(C)c2c(C)n(-c3cccc(OC(CCN)c4ccccc4F)c3)nc12 (centres unmarked)", "pKi": "5.30 to 6.30"}
{"Compound": "CNCCC(Oc1cccc(-n2nc3c(N)nnc(C)c3c2C)c1)c1ccccc1 (centres unmarked)", "pKi": "5.30 to 6.30"}
{"Compound": "Cc1nnc(N(C)C)c2nn(-c3cccc(OCC4CCN(CCc5ccccc5)CC4)c3)c(C)c12", "pKi": "5.30 to 6.30"}
{"Compound": "CNCC[C@@H](Oc1cccc(-n2nc3c(N(C)C)nnc(C)c3c2C)c1)c1ccccc1", "pKi": "5.30 to 6.30"}
{"Compound": "CNCCC(Oc1cccc(-n2nc3c(NC)nnc(C)c3c2C)c1)c1ccccc1F (centres unmarked)", "pKi": "5.30 to 6.30"}
{"Compound": "CNCCC(Oc1cccc(-n2nc3c(N(C)C)nnc(C)c3c2C)c1)c1ccc(C#N)cc1 (centres unmarked)", "pKi": "5.30 to 6.30"}
{"Compound": "CNCC[C@@H](Oc1cccc(-n2nc3c(N(C)C)nnc(C)c3c2C)c1)c1cccnc1", "pKi": "5.30 to 6.30"}
{"Compound": "CNCCC(Oc1cccc(-n2nc3c(N(C)C)nnc(C)c3c2C)c1)c1ccc(OC(F)(F)F)cc1 (centres unmarked)", "pKi": "5.30 to 6.30"}
{"Compound": "CCNCCC(Oc1cccc(-n2nc3c(N(C)C)nnc(C)c3c2C)c1)c1ccccc1 (centres unmarked)", "pKi": "5.30 to 6.30"}
{"Compound": "CNCCC(Oc1cccc(-n2nc3c(N(C)C)nnc(C)c3c2C)c1)c1ccccc1 (centres unmarked)", "pKi": "5.30 to 6.30"}
{"Compound": "Cc1nnc(N(C)C)c2nn(-c3cccc(OCCC(N)c4ccccc4)c3)c(C)c12 (centres unmarked)", "pKi": "5.30 to 6.30"}
{"Compound": "CNCCC(Oc1cccc(-n2nc3c(N(C)C)nnc(C)c3c2C)c1)c1ccc(C(N)=O)cc1 (centres unmarked)", "pKi": "5.30 to 6.30"}
